Assay: BET inhibitor-based combinations targeting novel dependencies in MECOM-rearranged (r) AML: OCI-AML3 cell line (AID 2202232); also: nearly all actives have a fitted effect of over 35% in size
Details: CellTiter-Glo luminescence, 48 h; OCI-AML3 viability; series mostly up to 46 µM
Results filed as inconclusive are left out. Activity calls are given as the source filed them. Calls follow the shape of the dose curve; as a rule, active = well fitted inhibition curve with a large enough effect; inconclusive = small, poorly fitted or top-dose-only effect; inactive = no such curve, though single readings can be large or run the other way.
// classify into active, inactive

Here are 5 molecules together with their reported answers.
| molecule | qualitative label |
| --- | --- |
| Cc1cnc(Nc2ccc(N3CCN(C)CC3)cc2)nc1Nc1cccc(S(=O)(=O)NC(C)(C)C)c1 | active |
| NC(=O)c1cccc(N)c1 | inactive |
| CN1CCN2c3ncccc3Cc3ccccc3C2C1 (configuration not stated) | inactive |
| O[C@@H](COc1cccc2ncccc12)CN1CCN(C2c3ccccc3[C@@H]3[C@H](c4ccccc42)C3(F)F)CC1 (some centres not stated) | active |
| CC(C)Oc1cc(Nc2nc(N[C@@H](C)c3ccc(F)cn3)ncc2Cl)[nH]n1 | active |

query: Short answer needed: outcome of this test for O=C1CN2Cc3c(ccc(Cl)c3Cl)N=C2N1 ?
result: inactive

query: Short answer needed: outcome of this test for Cc1cc(C2CCCCC2)n(O)c(=O)c1 ?
result: active
